Source listed as PubChem BioAssay (NCI).

I'd be grateful if you could share measured growth inhibition for these entries.
- PROCEDURE_TEXT: NCI Yeast Anticancer Drug Screen. Data for the cln2 rad14 strain (AID 165);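 further: 0% = growth equal to vehicle treated cultures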
- TEST_CONTEXT: S. cerevisiae cln2 rad14 strain, at 50.0 µM, stronger effect = higher value
This is part of a sample that, as a whole, favours compounds with a hit. Of some 79,000 tested, about 15% had one in any assay.
Answers are plain numbers, in %.

Examples from the recorded data:
Noted for `CCOC(=O)c1ccc(C=O)cc1` : its growth inhibition reads 6.25

Noted for `CCCCN1C(=O)C(=O)N(CCc2ccc(OC)c(OC)c2)C1=O` : its growth inhibition reads 18.7

Noted for `CC1=NNC(=O)C1` : its growth inhibition reads -14.8

Noted for CC(=O)OCC(OC(C)=O)C(OC(C)=O)C(OC(C)=O)C(OC(C)=O)C(C=O)OC(C)=O (configuration not stated) : its growth inhibition reads -37.2

Noted for `CS(=O)(=O)O[C@H]1[C@H](O)c2ccccc2[C@@H]1N=[N+]=[N-]` : its growth inhibition reads -3

Noted for `COc1ccc(-n2[nH]nc(C(N)=O)c2=O)cc1` : its growth inhibition reads -22.6

Noted for `O=Cc1ccccc1Cl` : its growth inhibition reads -15.2

Noted for CC1(C)CC(C)(O)N(CCc2ccccc2)C(=S)N1 (configuration not stated) : its growth inhibition reads -17.1

Noted for CCOC(=O)CC(NC(=O)CC(N)C(=O)O)C(=O)OCC (configuration not stated) : its growth inhibition reads -1.25

Noted for `O=C(C#Cc1ccccc1)[O][Sn]([c]1ccccc1)([c]1ccccc1)[c]1ccccc1` : its growth inhibition reads 99.2

# batch size: 2; output growth inhibition per entry
1. O=c1oc2ccccc2cc1CCBr
2. O=c1[nH]cnc2c1cnn2Cc1ccccc1

-3.3
2.1

---

I'd be grateful if you could share measured growth inhibition for these entries.
- PROCEDURE_TEXT: NCI Yeast Anticancer Drug Screen. Data for the sgs1 mgt1 strain (AID 161);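 further: 0% = growth of cultures given vehicle only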
- TEST_CONTEXT: S. cerevisiae sgs1 mgt1 strain, at 50.0 µM, stronger effect = higher value
- Protocol: Growth inhibition of yeast strains with defined genetic alterations is measured as a screen for potential anti-cancer activity. Selected strains with alterations in DNA damage repair or cell cycle control were exposed to compounds and growth inhibition was measured relative to vehicle treated controls. The strain used in this assay is sgs1 mgt1
This is part of a sample that, as a whole, favours compounds with a hit. Of some 79,000 tested, about 15% had one in any assay.
Answers are plain numbers, in %.

Noted for `CC(=O)c1sc2c(c1OC(=O)c1cccs1)c(=O)n(-c1ccccc1)c(=S)n2-c1ccccc1` : its growth inhibition reads 10.3

Noted for CCOC(=O)C(NC(=O)c1ccccc1)(N1CCOCC1)C(F)(F)F (centres undefined) : its growth inhibition reads 8.05

Noted for `O=c1oc2ccccc2c(O)c1Oc1ccccc1` : its growth inhibition reads -15.3

Noted for `CC(C)=C(Cl)c1c(C)cc(C)c(CC(N)=O)c1C` : its growth inhibition reads -8.15

Noted for `CCN(CC)C(=O)CC1(O)CCCCC1` : its growth inhibition reads -3.15

Noted for O=C1C2=C(Nc3cc([N+](=O)[O-])ccc3N2)OC1c1ccc2c(c1)OCO2 (centres undefined) : its growth inhibition reads -15.1

Noted for `N#CCCN(N)S(=O)(=O)c1ccccc1` : its growth inhibition reads 0

Noted for `COc1cc(SC)c(OC)cc1C` : its growth inhibition reads -12.4

Noted for O=C(C(c1ccccc1)C(F)(F)F)N1CCCC1 (centres undefined) : its growth inhibition reads 5.05

Noted for `CC(C)(CCc1nc2ccccc2[nH]1)C(=O)O` : its growth inhibition reads -1.35

# batch size: 4; output growth inhibition per entry
1. Cc1cc(N(CCO)CCO)c2ccc3cc4ccccc4cc3c2n1
2. COC1(C)C=NCC(C)(C)NC(=O)C(C)(OC)C=NCC(C)(C)NC1=O (centres undefined)
3. CC(O)COC1CCCCC1 (centres undefined)
4. CCOC(=O)NN(C(=O)OCC)c1c(NN)n(C)c(=O)n(C)c1=O

1: 9.35; 2: -29.4; 3: 3.85; 4: 9.2
